Source: PubChem BioAssay (NCATS)

Recorded measurements of viability (% of control), one per entry
- assayMethodText: High-throughput drug toxicity screening in the BPDCN cell line Cal-1 (AID 1224825);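 also: cells exposed to compounds for 48 h; 100% = DMSO and 0% = bortezomib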
- conditionsUsed: Cal-1 BPDCN cell viability, qHTS; at 45.8 µM (top of the series) unless noted
# number only, unit % dropped from output

// known answers, use as guide
Field request: viability (% of control) | item: O=C(NC(Cc1cc(=O)[nH]c2ccccc12)C(=O)O)c1ccc(Cl)cc1 (centres undefined)
108

Value lookup for viability (% of control); key = O=c1c(O)c(-c2ccc(O)cc2O)oc2cc(O)cc(O)c12
84.9

If you can, please state the reported viability (% of control) value of CCCS(=O)c1ccc2nc(NC(=O)OC)[nH]c2c1 (centres undefined) .
13.7

More entries:
# lookup: viability (% of control) of Nc1nc(N)c(N=O)c(OCC2CCCCC2)n1
15.6
